The measurements presented in this section are drawn from paper PMC9482650.

- TEST SYSTEM: SCRIB_3, Q14160
- Sequence (Q14160 999-1103): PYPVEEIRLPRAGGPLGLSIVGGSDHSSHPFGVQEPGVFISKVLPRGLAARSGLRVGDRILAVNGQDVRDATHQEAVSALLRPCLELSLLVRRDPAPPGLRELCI
- ASSAY OVERVIEW: holdup assay
- Parameters: key: below the threshold = too weak to quantify, mostly under pKd 3.1 to 4
- CONDITIONS: plain residues with an end cap or a label only (N-terminal biotin on a linker: ado-ado)

[
  {
    "BINDER": "SFISKKEWYV [NECTIN1, Q15223]",
    "pKd": "below the threshold"
  },
  {
    "BINDER": "AEASVACSLC [PTGIR, P43119]",
    "pKd": "below the threshold"
  },
  {
    "BINDER": "EKCGKEFSEF [PRKACA, P17612]",
    "pKd": "below the threshold"
  },
  {
    "BINDER": "DRIQSCLSDA [SBF1, O95248]",
    "pKd": "below the threshold"
  },
  {
    "BINDER": "AQRARSPSDV [GPR12, P47775]",
    "pKd": "below the threshold"
  },
  {
    "BINDER": "GTGYDRKDYV [CLDN3, O15551]",
    "pKd": "below the threshold"
  }
]
